Data origin, for the record: PubChem BioAssay

System: TRPC4 beta (transient receptor potential cation channel C4), mouse
METHOD NOTES: potentiation of DAMGO EC20 TRPC4 response – cell-based, Fluo-4, HEK293 TRPC4beta/mu-opioid, confirmation (AID 2555)
TEST SETTINGS: DAMGO EC20, Fluo-4 calcium flux, at 10 µM
Activity calls are given as the source filed them.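 How the source made its calls: active means primary screen hit whose calcium fluorescence ratio, in both repeats, exceeds the weak agonist control mean by 3 SD; inactive means the rest.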

>  <COMPOUND>
CCOc1ccc2c(C)nc(NC3=NC(C)(C)C=C(C)N3)nc2c1

>  <potentiation>
inactive

$$$$
>  <COMPOUND>
CCCC1C(=O)Nc2ccccc2N1C(=O)c1ccc(C(C)(C)C)cc1 (stereo unspecified)

>  <potentiation>
inactive

$$$$
>  <COMPOUND>
COc1ccc(CC2(CO)CCN(C/C=C/c3ccccc3OC)CC2)cc1

>  <potentiation>
inactive

$$$$
>  <COMPOUND>
CC(Oc1ccc(Cl)cc1Cl)C(=O)N(C)c1ccccc1 (stereo unspecified)

>  <potentiation>
inactive

$$$$
>  <COMPOUND>
Cc1ccc(N2CCN(C(=O)c3ccccc3F)CC2)c(C)c1

>  <potentiation>
inactive

$$$$
>  <COMPOUND>
COc1ccc(Cl)cc1C(=O)NCCN(C)C

>  <potentiation>
inactive

$$$$
>  <COMPOUND>
CCOC(=O)CC(NC(=O)c1cc2cc(Br)ccc2oc1=O)c1cccc([N+](=O)[O-])c1 (stereo unspecified)

>  <potentiation>
inactive

$$$$
>  <COMPOUND>
CCN(CC)CCOCCOc1ccc(Cl)c2ccccc12

>  <potentiation>
inactive

$$$$
>  <COMPOUND>
CC(C)(C)[C@H]1C=C(C(=O)NCc2ccccc2)O[C@@H](OCc2ccc(CO)cc2)C1

>  <potentiation>
inactive

$$$$
>  <COMPOUND>
O=C(NCCCN1CCN(c2cccc(Cl)c2)CC1)C1CCC(=O)N1Cc1ccccc1Cl (stereo unspecified)

>  <potentiation>
inactive

$$$$
>  <COMPOUND>
Cc1cc(C)cc(N/C(N)=N/c2nc(C)cc(C)n2)c1

>  <potentiation>
inactive

$$$$
